// reported pKd per item
assay: BIAcore binding of proteins to heparin immobilised on a biosensor chip; settings: IL-4 WT and mutants binding to heparin; read-out: KD
pKd: −log10 of the molar value.
readout: pKd

[[record]]
molecule = "K77A: IL-4 mutant, baculovirus expressed (protein) HKCDITLQEIIKTLNSLTEQKTLCTELTVTDIFAASKNTTEKETFCRAATVLRQFYSHHEKDTRCLGATAQQFHRHAQLIRFLKRLDRNLWGLAGLNSCPVKEANQSTLENFLERLKTIMREKYSKCSS"
readout = "pKd"
reported = 6.46

[[record]]
molecule = "K77A/R81A: IL-4 double mutant (protein) HKCDITLQEIIKTLNSLTEQKTLCTELTVTDIFAASKNTTEKETFCRAATVLRQFYSHHEKDTRCLGATAQQFHRHAQLIAFLKRLDRNLWGLAGLNSCPVKEANQSTLENFLERLKTIMREKYSKCSS"
readout = "pKd"
reported = 6.80

[[record]]
molecule = "D87A: IL-4 mutant, baculovirus expressed (protein, UniProt P05112 25-153, looked up, variant D87A) Interleukin-4: HKCDITLQEIIKTLNSLTEQKTLCTELTVTDIFAASKNTTEKETFCRAATVLRQFYSHHEKDTRCLGATAQQFHRHKQLIRFLKRLARNLWGLAGLNSCPVKEANQSTLENFLERLKTIMREKYSKCSS"
readout = "pKd"
reported = 7.44

[[record]]
molecule = "R75A: IL-4 mutant, baculovirus expressed (protein) HKCDITLQEIIKTLNSLTEQKTLCTELTVTDIFAASKNTTEKETFCRAATVLRQFYSHHEKDTRCLGATAQQFHAHKQLIRFLKRLDRNLWGLAGLNSCPVKEANQSTLENFLERLKTIMREKYSKCSS"
readout = "pKd"
reported = 6.96

[[record]]
molecule = "K42A: IL-4 mutant, baculovirus expressed (protein) HKCDITLQEIIKTLNSLTEQKTLCTELTVTDIFAASKNTTEAETFCRAATVLRQFYSHHEKDTRCLGATAQQFHRHKQLIRFLKRLDRNLWGLAGLNSCPVKEANQSTLENFLERLKTIMREKYSKCSS"
readout = "pKd"
reported = 7.27

[[record]]
molecule = "K77A/K84A: IL-4 double mutant (protein) HKCDITLQEIIKTLNSLTEQKTLCTELTVTDIFAASKNTTEKETFCRAATVLRQFYSHHEKDTRCLGATAQQFHRHAQLIRFLARLDRNLWGLAGLNSCPVKEANQSTLENFLERLKTIMREKYSKCSS"
readout = "pKd"
reported = 6.75

[[record]]
molecule = "K12A: IL-4 mutant, baculovirus expressed (protein) HKCDITLQEIIATLNSLTEQKTLCTELTVTDIFAASKNTTEKETFCRAATVLRQFYSHHEKDTRCLGATAQQFHRHKQLIRFLKRLDRNLWGLAGLNSCPVKEANQSTLENFLERLKTIMREKYSKCSS"
readout = "pKd"
reported = 7.11

[[record]]
molecule = "K21A: IL-4 mutant, baculovirus expressed (protein) HKCDITLQEIIKTLNSLTEQATLCTELTVTDIFAASKNTTEKETFCRAATVLRQFYSHHEKDTRCLGATAQQFHRHKQLIRFLKRLDRNLWGLAGLNSCPVKEANQSTLENFLERLKTIMREKYSKCSS"
readout = "pKd"
reported = 7.28

[[record]]
molecule = "K84A: IL-4 mutant, baculovirus expressed (protein) HKCDITLQEIIKTLNSLTEQKTLCTELTVTDIFAASKNTTEKETFCRAATVLRQFYSHHEKDTRCLGATAQQFHRHKQLIRFLARLDRNLWGLAGLNSCPVKEANQSTLENFLERLKTIMREKYSKCSS"
readout = "pKd"
reported = 7.08

[[record]]
molecule = "K77A/R85A: IL-4 double mutant (protein, UniProt P05112 25-153, looked up, variant K77A R85A) Interleukin-4: HKCDITLQEIIKTLNSLTEQKTLCTELTVTDIFAASKNTTEKETFCRAATVLRQFYSHHEKDTRCLGATAQQFHRHAQLIRFLKALDRNLWGLAGLNSCPVKEANQSTLENFLERLKTIMREKYSKCSS"
readout = "pKd"
reported = 6.93

[[record]]
molecule = "K77A/K12A: IL-4 double mutant (protein, UniProt P05112 25-153, looked up, variant K77A K12A) Interleukin-4: HKCDITLQEIIATLNSLTEQKTLCTELTVTDIFAASKNTTEKETFCRAATVLRQFYSHHEKDTRCLGATAQQFHRHAQLIRFLKRLDRNLWGLAGLNSCPVKEANQSTLENFLERLKTIMREKYSKCSS"
readout = "pKd"
reported = 6.68

[[record]]
molecule = "R53A: IL-4 mutant, baculovirus expressed (protein) HKCDITLQEIIKTLNSLTEQKTLCTELTVTDIFAASKNTTEKETFCRAATVLAQFYSHHEKDTRCLGATAQQFHRHKQLIRFLKRLDRNLWGLAGLNSCPVKEANQSTLENFLERLKTIMREKYSKCSS"
readout = "pKd"
reported = 7.03

[[record]]
molecule = "K77A/R88V: IL-4 double mutant (protein, UniProt P05112 25-153, looked up, variant K77A R88V) Interleukin-4: HKCDITLQEIIKTLNSLTEQKTLCTELTVTDIFAASKNTTEKETFCRAATVLRQFYSHHEKDTRCLGATAQQFHRHAQLIRFLKRLDVNLWGLAGLNSCPVKEANQSTLENFLERLKTIMREKYSKCSS"
readout = "pKd"
reported = 6.85

